Sourced from ChEMBL document CHEMBL4477212

- System: CEM-SS
- assay_text: Cytotoxicity against human CEM-SS cells assessed as cell viability at 10 uM after 6 days by MTS assay
- Format: cell-based
- condition_details: 144 h
metric_name: Activity (%)
Number only, in %; omit the unit.

According to the records, this compound CCCNc1[nH]c(=O)n(O)c(=O)c1C(=O)NCc1ccccc1 displays Activity of 97

According to the records, this compound CCCNc1[nH]c(=O)n(O)c(=O)c1C(=O)NCc1cccc(Cl)c1F displays Activity of 48

According to the records, this compound CNc1[nH]c(=O)n(O)c(=O)c1C(=O)NCc1ccc(F)cc1 displays Activity of 89

According to the records, this compound CCNc1[nH]c(=O)n(O)c(=O)c1C(=O)NCc1cccc(Cl)c1F displays Activity of 100

According to the records, this compound CCNc1[nH]c(=O)n(O)c(=O)c1C(=O)NCc1ccc(C)c(F)c1 displays Activity of 100

According to the records, this compound O=C(NCc1ccccc1)c1c(Nc2ccccc2)[nH]c(=O)n(O)c1=O displays Activity of 21

According to the records, this compound CC(C)(C)Nc1[nH]c(=O)n(O)c(=O)c1C(=O)NCc1ccccc1 displays Activity of 17

According to the records, this compound CCNc1[nH]c(=O)n(O)c(=O)c1C(=O)NCc1cc(F)cc(F)c1 displays Activity of 100

According to the records, this compound CCNc1[nH]c(=O)n(O)c(=O)c1C(=O)NCc1ccc(Cl)c(F)c1 displays Activity of 100

According to the records, this compound CC(C)Nc1[nH]c(=O)n(O)c(=O)c1C(=O)NCc1ccccc1 displays Activity of 90

According to the records, this compound CCNc1[nH]c(=O)n(O)c(=O)c1C(=O)NCCCl displays Activity of 100

According to the records, this compound CCNc1[nH]c(=O)n(O)c(=O)c1C(=O)NCc1cc(F)ccc1Cl displays Activity of 73

According to the records, this compound CNc1[nH]c(=O)n(O)c(=O)c1C(=O)NCc1cccc(F)c1 displays Activity of 95

According to the records, this compound CNc1[nH]c(=O)n(O)c(=O)c1C(=O)NCc1ccccc1 displays Activity of 98

According to the records, this compound CCNc1[nH]c(=O)n(O)c(=O)c1C(=O)NCc1ccc(F)cc1F displays Activity of 92

According to the records, this compound CCNc1[nH]c(=O)n(O)c(=O)c1C(=O)Nc1ccccc1 displays Activity of 27

According to the records, this compound CCNc1[nH]c(=O)n(O)c(=O)c1C(=O)NCCc1ccccc1 displays Activity of 87

According to the records, this compound CCNc1[nH]c(=O)n(O)c(=O)c1C(=O)NCc1ccc(F)cc1 displays Activity of 99

According to the records, this compound CCNc1[nH]c(=O)n(O)c(=O)c1C(=O)NCc1cccc(F)c1 displays Activity of 90

According to the records, this compound Nc1[nH]c(=O)n(O)c(=O)c1C(=O)NCc1ccccc1 displays Activity of 100

According to the records, this compound O=C(NCc1ccccc1)c1c(NC2CC2)[nH]c(=O)n(O)c1=O displays Activity of 91

According to the records, this compound CCNc1[nH]c(=O)n(O)c(=O)c1C(=O)NCc1cc(F)ccc1F displays Activity of 87

According to the records, this compound CNc1[nH]c(=O)n(O)c(=O)c1C(=O)NCc1cccc(Cl)c1F displays Activity of 100
